system: MX-1 breast xenograft, intrarenal, nude mice, tumor weight; assay: NCI In Vivo Anticancer Drug Screen. Data for tumor model Human Mammary Carcinoma MX-1 Xenograft (intrarenal inoculation) in NU/NU BALB/C (nude) mice; conditions: endpoint: mean tumor weight change; dose: 150.0 mg/kg/injection; schedule: Q04DX003 (ip); vehicle: saline with Tween-80; higher = larger tumour
Records with an inconclusive call do not appear.
Catalogue of T/C readings, one per entry.

# Compound, System Under Test, T/C
data = [
    ("CCOC(=O)Nc1cc2c(c(N)n1)N=C(c1ccccc1)CO2", "MX-1 breast xenograft, intrarenal, nude mice, tumor weight", "73 % of control"),
    ("Nc1ccn(C2CC(N)C(CO)O2)c(=O)n1 (stereo not drawn)", "MX-1 breast xenograft, intrarenal, nude mice, tumor weight", "105 % of control"),
    ("O=C(Nc1cc(Cl)ccc1C(=O)O)c1cccc(C[n+]2ccccc2)c1", "MX-1 breast xenograft, intrarenal, nude mice, tumor weight", "109 % of control"),
    ("CNC(=O)Oc1ccc(S(=O)(=O)c2ccc(OC(=O)NC)cc2)cc1", "MX-1 breast xenograft, intrarenal, nude mice, tumor weight", "98 % of control"),
    ("CNC(=O)Sc1ccc(C)c(N(C)C)c1", "MX-1 breast xenograft, intrarenal, nude mice, tumor weight", "92 % of control"),
    ("O=C1C2CC(Cl)C(SSC3CC4C(=O)N(SC(Cl)(Cl)C(Cl)Cl)C(=O)C4CC3Cl)CC2C(=O)N1SC(Cl)(Cl)C(Cl)Cl (stereo not drawn)", "MX-1 breast xenograft, intrarenal, nude mice, tumor weight", "45 % of control"),
    ("COc1cc2oc3c(C)c(=O)cc4oc(-c5ccccc5)cc(c2c2c1CCC(c1ccccc1)O2)c43 (stereo not drawn)", "MX-1 breast xenograft, intrarenal, nude mice, tumor weight", "117 % of control"),
    ("CCOC(=O)C1=C(C)O/C(=C/c2cccc(Cl)c2)C1=O", "MX-1 breast xenograft, intrarenal, nude mice, tumor weight", "62 % of control"),
    ("CC1C(c2ccccc2)OC(N2CCOCC2)C(C)(C)CN1C (stereo not drawn)", "MX-1 breast xenograft, intrarenal, nude mice, tumor weight", "112 % of control"),
    ("ClC1(Cl)Cc2ccccc21", "MX-1 breast xenograft, intrarenal, nude mice, tumor weight", "109 % of control"),
    ("Nc1ccc2ccc(N)cc2c1", "MX-1 breast xenograft, intrarenal, nude mice, tumor weight", "75 % of control"),
    ("C=CCNC(=O)c1ccccc1SC(C)=O", "MX-1 breast xenograft, intrarenal, nude mice, tumor weight", "93 % of control"),
    ("N=C(N)c1ccc(N=NNc2ccc(C(=N)N)cc2)cc1", "MX-1 breast xenograft, intrarenal, nude mice, tumor weight", "83 % of control"),
]

----------
system: MX-1 breast xenograft, intrarenal, nude mice, tumor weight; assay: NCI In Vivo Anticancer Drug Screen. Data for tumor model Human Mammary Carcinoma MX-1 Xenograft (intrarenal inoculation) in NU/NU BALB/C (nude) mice; conditions: endpoint: mean tumor weight change; dose: 600.0 mg/kg/injection; schedule: Q04DX003 (sc); vehicle: Klucel (hydroxypropylcellulose) (HPC); higher = larger tumour
Inconclusive results are not listed.

# Compound, System Under Test, T/C
records = [
    ("Cc1nn(CCO)c(C)c1N=[N+]([O-])c1c(C)nn(CCO)c1C", "MX-1 breast xenograft, intrarenal, nude mice, tumor weight", "85 % of control"),
    ("Nc1nc(N)c2cc(CNc3ccc(C(=O)NC(CC(=O)O)CC(=O)O)cc3)ccc2n1", "MX-1 breast xenograft, intrarenal, nude mice, tumor weight", "91 % of control"),
    ("CC1=C/C(O)CC(=O)Cc2nc(co2)C(=O)N2CCC=C2C(=O)OC(C(C)C)C(C)/C=C\\C(=O)NC/C=C\\1 (stereo unspecified)", "MX-1 breast xenograft, intrarenal, nude mice, tumor weight", "104 % of control"),
    ("CN=C(NC#N)NCCSCc1nc[nH]c1C", "MX-1 breast xenograft, intrarenal, nude mice, tumor weight", "108 % of control"),
    ("CC1=CC(=Nc2ccc(N(CCCl)CCCl)cc2)C=C(C)C1=O", "MX-1 breast xenograft, intrarenal, nude mice, tumor weight", "-12 % of control"),
    ("O=C1N[C@H]2[C@H](CS[C@H]2CCCCC(=O)N(CCP(c2ccccc2)c2ccccc2)CCP(c2ccccc2)c2ccccc2)N1", "MX-1 breast xenograft, intrarenal, nude mice, tumor weight", "108 % of control"),
    ("Cc1ccc(C2NC(=O)c3ccccc3N2)s1 (stereo unspecified)", "MX-1 breast xenograft, intrarenal, nude mice, tumor weight", "105 % of control"),
    ("COC(=O)Nc1cn2cc(C(=O)c3cccs3)ccc2n1", "MX-1 breast xenograft, intrarenal, nude mice, tumor weight", "74 % of control"),
    ("Cc1ccc(S(=O)(=O)NC(=O)C2C(=O)CC3(CCCCC3)CC2=O)cc1", "MX-1 breast xenograft, intrarenal, nude mice, tumor weight", "95 % of control"),
    ("Cc1cc(N/N=C/c2ccccn2)nc2ccccc12", "MX-1 breast xenograft, intrarenal, nude mice, tumor weight", "73 % of control"),
    ("COc1ccc2ccccc2c1C1NC(=O)c2ccccc2N1 (stereo unspecified)", "MX-1 breast xenograft, intrarenal, nude mice, tumor weight", "104 % of control"),
]

----------
system: MX-1 breast xenograft, intrarenal, nude mice, tumor weight; assay: NCI In Vivo Anticancer Drug Screen. Data for tumor model Human Mammary Carcinoma MX-1 Xenograft (intrarenal inoculation) in NU/NU BALB/C (nude) mice; conditions: endpoint: mean tumor weight change; dose: 600.0 mg/kg/injection; schedule: Q04DX003 (ip); vehicle: saline; higher = larger tumour
Inconclusive results are not listed.
T/C values for the molecules below.
Experimental Readout: T/C

# Molecule, Experimental Readout, Test Result
data = [
    ("NC(CSSCC(N)C(=O)O)C(=O)O (stereo unspecified)", "T/C", "92 % of control"),
    ("OCC(O)C(O)C(O)C(O)CO (stereo unspecified)", "T/C", "94 % of control"),
    ("N[C@@H](C[C@H]1CCC(=O)[C@@H]2O[C@H]12)C(=O)O", "T/C", "104 % of control"),
    ("NC(=O)SCC(N)C(=O)O (stereo unspecified)", "T/C", "80 % of control"),
    ("O=CC(O)C(O)C(O)C(O)CO (stereo unspecified)", "T/C", "93 % of control"),
    ("COc1cc(C(C)c2cc3c(cc2OCCO)OCO3)cc(OC)c1OC (stereo unspecified)", "T/C", "21 % of control"),
]

----------
# T/C values compiled below
test system: MX-1 breast xenograft, intrarenal, nude mice, tumor weight; experiment: NCI In Vivo Anticancer Drug Screen. Data for tumor model Human Mammary Carcinoma MX-1 Xenograft (intrarenal inoculation) in NU/NU BALB/C (nude) mice; conditions: endpoint: mean tumor weight change; dose: 600.0 mg/kg/injection; schedule: Q04DX003 (sc); vehicle: saline with Tween-80; higher = larger tumour
Results filed as inconclusive are left out.

# Compound, T/C
records = [
    ("CCOC(=O)[C@]1(Br)CC[C@@]1(Br)C(=O)OCC", "96 % of control"),
    ("O=C(Nc1cccc(Cl)c1)ON1C(=O)C2C(C1=O)C1(Cl)C(Cl)C(Cl)C2(Cl)C1(Cl)Cl (stereo not drawn)", "100 % of control"),
    ("CCOC1=Cc2c(oc3c(C(C)(C)C)cc(OCC)cc23)OC(C(C)(C)C)=C1", "77 % of control"),
    ("C[C@]12CC[C@H](O)CC1=CC[C@@H]1[C@@H]2CC[C@]2(C)C(=O)CC[C@@H]12", "76 % of control"),
    ("C[C@]12CC[C@@H]3c4ccc(OC(=O)Cc5ccc(N(CCCl)CCCl)cc5)cc4CC[C@H]3[C@@H]1CC[C@@H]2OC(=O)Cc1ccc(N(CCCl)CCCl)cc1", "24 % of control"),
    ("OC1(CSc2ccccc2)CCCCC1", "112 % of control"),
    ("O=[N+]([O-])c1ccc(Sc2ccncn2)c([N+](=O)[O-])c1", "86 % of control"),
    ("CC(=O)Oc1[nH]c(=O)c2cccc3c2c1CCC3", "93 % of control"),
]

----------
Documented T/C across a set of compounds
test system: MX-1 breast xenograft, intrarenal, nude mice, tumor weight; test: NCI In Vivo Anticancer Drug Screen. Data for tumor model Human Mammary Carcinoma MX-1 Xenograft (intrarenal inoculation) in NU/NU BALB/C (nude) mice; conditions: endpoint: mean tumor weight change; dose: 600.0 mg/kg/injection; schedule: Q04DX003 (ip); vehicle: Klucel (hydroxypropylcellulose) (HPC); higher = larger tumour
Records with an inconclusive call do not appear.
Experimental Readout: T/C

# Compound, System Under Test, Test Result
rows = [
    ("O=C1CC2(C(=O)N1CN1CCOCC1)c1ccccc1-c1ccccc12", "MX-1 breast xenograft, intrarenal, nude mice, tumor weight", "72 % of control"),
    ("O=C1CNC(=O)N1CN1CCOCC1", "MX-1 breast xenograft, intrarenal, nude mice, tumor weight", "81 % of control"),
    ("CCOC(=O)/C=C/C(=O)N1CCN(C(=O)/C=C/C(=O)OCC)C(C)C1 (centres undefined)", "MX-1 breast xenograft, intrarenal, nude mice, tumor weight", "77 % of control"),
    ("CCOC1NC(=O)Oc2ccccc21 (centres undefined)", "MX-1 breast xenograft, intrarenal, nude mice, tumor weight", "86 % of control"),
    ("C[C@]12CCC(=O)C(O)=C1CC[C@@H]1[C@@H]2CC[C@]2(C)C(=O)CC[C@@H]12", "MX-1 breast xenograft, intrarenal, nude mice, tumor weight", "122 % of control"),
    ("CCCC1(c2ccccc2)C(=O)NCNC1=O", "MX-1 breast xenograft, intrarenal, nude mice, tumor weight", "88 % of control"),
    ("CCn1c(-c2ccc(OC(C)=O)cc2)c(C)c2cc(OC(C)=O)ccc21", "MX-1 breast xenograft, intrarenal, nude mice, tumor weight", "63 % of control"),
    ("O=C(NC(Cc1ccc(I)cc1)C(=O)O)c1cccc(Br)c1 (centres undefined)", "MX-1 breast xenograft, intrarenal, nude mice, tumor weight", "76 % of control"),
    ("COC(=O)C1(F)C(=O)NC(=O)NC1OC (centres undefined)", "MX-1 breast xenograft, intrarenal, nude mice, tumor weight", "43 % of control"),
]
